# System: EKVX NSCLC
# assay-text: NCI tumour cell line growth inhibition, 48 h
value-type: TGI

compound | TGI
O=C(O)COc1ccc(C(=O)/C(SS/C(C(=O)c2ccc(OCC(=O)O)c(Cl)c2Cl)=C2\C=C(c3ccc(Cl)cc3)SS2)=C2/C=C(c3ccc(Cl)cc3)SS2)c(Cl)c1Cl | > 100 µM

Provide TGI for all items below, preserving their order.
1. Cc1ccc(-c2cc3c4c(nc5ccccc53)C(=O)c3cccnc3-c4n2)cc1
2. CCc1nc(N)nc(N)c1-c1ccc2nnn(O)c2c1

Output:
["59.1 µM", "> 100 µM"]

* * *

Assignment: determine reported TGI for the given compounds.
# System: HCT-116 colon
# assay-text: NCI tumour cell line growth inhibition, 48 h

Please review the following examples before continuing.
compound | target-entity | TGI
CCCn1cc2c(SC)nc(SC)nc2n1 | HCT-116 colon | > 100 µM
COc1ccc(Sc2nc3cc(N)cc(N)c3nc2-c2ccccc2)cc1 | HCT-116 colon | > 100 µM
Nc1nc(N)c(-c2ccccc2)c(C(=O)Nc2ccccc2)n1 | HCT-116 colon | > 100 µM
COC(=O)c1ccccc1CC(Cc1ccc2c(c1)CCC2)C(=O)OC (stereo unspecified) | HCT-116 colon | > 100 µM
CC1(C)CC[C@]2(C(=O)O)CC[C@]3(C)C(=CC[C@@H]4[C@@]5(C)C[C@H](O)[C@H](O)[C@@](C)(C(=O)O)[C@@H]5CC[C@]43C)[C@@H]2C1 | HCT-116 colon | > 100 µM
Cc1cc(O)cc(C)c1/C=C/c1cncc(C(N)=O)c1 | HCT-116 colon | > 25 µM
C(=N\Nc1ccccc1)/c1nc2ccccc2nc1/C=N/Nc1ccccc1 | HCT-116 colon | 25.7 µM
CCOC(=O)C(Cc1cn(C(C)=O)c2ccccc12)P(=O)(OCC)OCC (stereo unspecified) | HCT-116 colon | > 100 µM
O=[N+]([O-])c1ccc(C2=Nn3c(nnc3-c3ccc(Cl)cc3)SC2)o1 | HCT-116 colon | 15.1 µM
CN(C)CCNC(=O)c1cccc2c(NC(CS)C(=O)O)c3ccccc3[n+](C)c12 (stereo unspecified) | HCT-116 colon | > 100 µM

Answer for every listed entry: what is its TGI? The entries follow.
1. Nc1ccc(Oc2ccc(C3(c4ccc(Oc5ccc(N)cc5)cc4)C4CC5CC(C4)CC3C5)cc2)cc1
2. N#Cc1ccc(CSC2=C(c3ccc(Cl)cc3)S/C(=C3\SC(SCc4ccc(C#N)cc4)=C(c4ccc(Cl)cc4)S3)S2)cc1
3. COCCNc1ccc2c3c(cccc13)C(=O)N(CCN(C)C)C2=O
4. O=c1[nH]c(=O)c2cc3cc(C4CC(O)C(CO)O4)ccc3cc2[nH]1 (stereo unspecified)
5. CN1CCC2(CC1)NC(=O)c1c(c3ccc(Cl)c(Cl)c3n1C)C2C#N (stereo unspecified)

Output:
1. 13.7 µM
2. > 100 µM
3. > 25 µM
4. > 100 µM
5. 9.17 µM

// for each compound in input: emit TGI
1. CC(C)(C)OC(=O)NC(Cc1ccc(O)cn1)C(=O)O (stereo unspecified)
2. O=C(/C(=C/c1ccc([N+](=O)[O-])cc1)SCc1ccc(Cl)cc1)c1ccc(F)cc1
3. O=C(CCCN1CCC2(CC1)CC(=O)N(N1CCOCC1)C2=O)c1ccc(F)cc1
4. O=C(O)CCc1nc2ccccc2[nH]1
5. CC(=O)O[C@@H]1C(=O)N(c2ccccc2)[C@@H]1c1cc2ccccc2c2ccccc12
6. COC(=O)C(C)(C)[C@@H]1OC(=O)N(S(=O)(=O)c2c(C)cc(C)cc2C)[C@H]1C(C)C

Output:
> 100 µM
2.92 µM
> 100 µM
> 100 µM
91 µM
> 100 µM
